test system: HL-60(TB); assay: Growth inhibition of human HL-60(TB) cells at 10 uM after 48 hrs by SRB assay; format: functional; conditions: HL-60, 48 h, read-out: GI

chemical-structure | modifier-sign | inhibition of growth at 10 µM (%)
Cc1ccc(C(=O)Nc2ccc(Cl)cc2C(=O)NCc2ccccc2)cc1 | = | 49
Cc1ccc(-c2nc3ccc(Cl)cc3c(=O)n2NC(=O)CNN)cc1 | = | 12
Cc1ccc(-c2nc3ccc(Cl)cc3c(=O)n2NC(=O)CN)cc1 | < | 10
Cc1ccc(-c2nc3ccc(Cl)cc3c(=O)n2/N=C/c2ccccc2)cc1 | = | 26
Cc1ccc(C2=Nc3ccc(Cl)cc3C3=NNCC(=O)NN23)cc1 | < | 10
Cc1ccc(-c2nc3ccc(Cl)cc3c3nnnn23)cc1 | < | 10
Cc1ccc(-c2nc3ccc(Cl)cc3c3nnc(S)n23)cc1 | < | 10
Cc1ccc(C(=O)Nc2ccc(Cl)cc2C(=O)Nc2ccccn2)cc1 | = | 16

====

tested on: RPMI-8226; assay: Growth inhibition of human RPMI8226 cells at 10 uM after 48 hrs by SRB assay; type: functional; settings: RPMI-8226, 48 h, read-out: GI
value-type: inhibition of growth at 10 µM

chemical-structure | subject-of-test | reported-value
Cc1ccc(C(=O)Nc2ccc(Cl)cc2C(=O)NCc2ccccc2)cc1 | RPMI-8226 | 23%
Cc1ccc(C2=Nc3ccc(Cl)cc3C3=NNCC(=O)NN23)cc1 | RPMI-8226 | < 10%
Cc1ccc(-c2nc3ccc(Cl)cc3c(=O)n2NC(=O)CN)cc1 | RPMI-8226 | < 10%
Cc1ccc(-c2nc3ccc(Cl)cc3c3nnc(S)n23)cc1 | RPMI-8226 | < 10%
Cc1ccc(-c2nc3ccc(Cl)cc3c(=O)n2NC(=O)CNN)cc1 | RPMI-8226 | 13%
Cc1ccc(-c2nc3ccc(Cl)cc3c(=O)n2/N=C/c2ccccc2)cc1 | RPMI-8226 | 20%
Cc1ccc(-c2nc3ccc(Cl)cc3c3nnnn23)cc1 | RPMI-8226 | < 10%
Cc1ccc(C(=O)Nc2ccc(Cl)cc2C(=O)Nc2ccccn2)cc1 | RPMI-8226 | 15%

====

// inhibition of growth at 10 µM lookup, one value per entry
assay: Growth inhibition of human OVCAR4 cells at 10 uM after 48 hrs by SRB assay; format: functional; conditions: OVCAR-4, 48 h, read-out: GI
value-type: inhibition of growth at 10 µM (%)

chemical-structure | modifier-sign | reported-value
Cc1ccc(-c2nc3ccc(Cl)cc3c3nnc(S)n23)cc1 | < | 10
Cc1ccc(C(=O)Nc2ccc(Cl)cc2C(=O)Nc2ccccn2)cc1 | = | 22
Cc1ccc(C(=O)Nc2ccc(Cl)cc2C(=O)NCc2ccccc2)cc1 | = | 21
Cc1ccc(-c2nc3ccc(Cl)cc3c3nnnn23)cc1 | < | 10
Cc1ccc(-c2nc3ccc(Cl)cc3c(=O)n2NC(=O)CN)cc1 | < | 10
Cc1ccc(C2=Nc3ccc(Cl)cc3C3=NNCC(=O)NN23)cc1 | < | 10
Cc1ccc(C(=O)Nc2ccc(Cl)cc2C(=O)Nc2ccccc2)cc1 | = | 11
Cc1ccc(-c2nc3ccc(Cl)cc3c(=O)n2/N=C/c2ccccc2)cc1 | = | 86
Cc1ccc(-c2nc3ccc(Cl)cc3c(=O)n2NC(=O)CNN)cc1 | = | 80

====

// inhibition of growth at 10 µM lookup, one value per entry
test system: SNB-75; test: Growth inhibition of human SNB75 cells at 10 uM after 48 hrs by SRB assay; type: functional; conditions: SNB-75, 48 h, read-out: GI
value-type: inhibition of growth at 10 µM (%)

chemical-structure | uom | modifier-sign | reported-value
Cc1ccc(C2=Nc3ccc(Cl)cc3C3=NNCC(=O)NN23)cc1 | % | < | 10
Cc1ccc(-c2nc3ccc(Cl)cc3c3nnc(S)n23)cc1 | % | < | 10
Cc1ccc(-c2nc3ccc(Cl)cc3c3nnnn23)cc1 | % | < | 10
Cc1ccc(-c2nc3ccc(Cl)cc3c(=O)n2NC(=O)CN)cc1 | % | = | 15
Cc1ccc(C(=O)Nc2ccc(Cl)cc2C(=O)Nc2ccccn2)cc1 | % | = | 24
Cc1ccc(C(=O)Nc2ccc(Cl)cc2C(=O)NCc2ccccc2)cc1 | % | = | 33

====

system: NCI-H322M; assay: Growth inhibition of human NCI-H322M cells at 10 uM after 48 hrs by SRB assay; assay type: functional; settings: read-out: GI

chemical-structure | inhibition of growth at 10 µM
Cc1ccc(-c2nc3ccc(Cl)cc3c3nnnn23)cc1 | < 10%
Cc1ccc(-c2nc3ccc(Cl)cc3c3nnc(S)n23)cc1 | < 10%
Cc1ccc(-c2nc3ccc(Cl)cc3c(=O)n2NC(=O)CNN)cc1 | 29%
Cc1ccc(C(=O)Nc2ccc(Cl)cc2C(=O)Nc2ccccn2)cc1 | < 10%
Cc1ccc(-c2nc3ccc(Cl)cc3c(=O)n2NC(=O)CN)cc1 | < 10%
Cc1ccc(-c2nc3ccc(Cl)cc3c(=O)n2/N=C/c2ccccc2)cc1 | 24%
Cc1ccc(C2=Nc3ccc(Cl)cc3C3=NNCC(=O)NN23)cc1 | < 10%
Cc1ccc(C(=O)Nc2ccc(Cl)cc2C(=O)Nc2ccccc2)cc1 | < 10%
Cc1ccc(C(=O)Nc2ccc(Cl)cc2C(=O)NCc2ccccc2)cc1 | < 10%

====

test system: SK-MEL-5; test: Growth inhibition of human SK-MEL-5 cells at 10 uM after 48 hrs by SRB assay; assay type: functional; details: SK-MEL-5, 48 h, read-out: GI
Values of inhibition of growth at 10 µM greater than or equal to 20% map to criterion met; values below map to criterion not met.

chemical-structure | assigned-category
Cc1ccc(-c2nc3ccc(Cl)cc3c3nnc(S)n23)cc1 | criterion not met
Cc1ccc(C(=O)Nc2ccc(Cl)cc2C(=O)Nc2ccccn2)cc1 | criterion met
Cc1ccc(C(=O)Nc2ccc(Cl)cc2C(=O)Nc2ccccc2)cc1 | criterion not met
Cc1ccc(C(=O)Nc2ccc(Cl)cc2C(=O)NCc2ccccc2)cc1 | criterion met
Cc1ccc(-c2nc3ccc(Cl)cc3c(=O)n2NC(=O)CN)cc1 | criterion not met
Cc1ccc(C2=Nc3ccc(Cl)cc3C3=NNCC(=O)NN23)cc1 | criterion not met
Cc1ccc(-c2nc3ccc(Cl)cc3c(=O)n2/N=C/c2ccccc2)cc1 | criterion not met
Cc1ccc(-c2nc3ccc(Cl)cc3c(=O)n2NC(=O)CNN)cc1 | criterion not met
Cc1ccc(-c2nc3ccc(Cl)cc3c3nnnn23)cc1 | criterion not met

====

system: A549; assay: Growth inhibition of human A549 cells at 10 uM after 48 hrs by SRB assay; assay type: functional; conditions: A549, 48 h, read-out: GI

chemical-structure | inhibition of growth at 10 µM
Cc1ccc(-c2nc3ccc(Cl)cc3c3nnnn23)cc1 | 47%
Cc1ccc(C(=O)Nc2ccc(Cl)cc2C(=O)Nc2ccccc2)cc1 | < 10%
Cc1ccc(-c2nc3ccc(Cl)cc3c3nnc(S)n23)cc1 | 11%
Cc1ccc(-c2nc3ccc(Cl)cc3c(=O)n2/N=C/c2ccccc2)cc1 | 87%
Cc1ccc(-c2nc3ccc(Cl)cc3c(=O)n2NC(=O)CNN)cc1 | 23%
Cc1ccc(C2=Nc3ccc(Cl)cc3C3=NNCC(=O)NN23)cc1 | 11%
Cc1ccc(C(=O)Nc2ccc(Cl)cc2C(=O)NCc2ccccc2)cc1 | 15%
Cc1ccc(-c2nc3ccc(Cl)cc3c(=O)n2NC(=O)CN)cc1 | < 10%
Cc1ccc(C(=O)Nc2ccc(Cl)cc2C(=O)Nc2ccccn2)cc1 | 13%

====

tested on: NCI-H522; experiment: Growth inhibition of human NCI-H522 cells at 10 uM after 48 hrs by SRB assay; assay type: functional; settings: NCI-H522, 48 h, read-out: GI
// inhibition of growth at 10 µM lookup, one value per entry

chemical-structure | subject-of-test | uom | modifier-sign | inhibition of growth at 10 µM
Cc1ccc(-c2nc3ccc(Cl)cc3c(=O)n2/N=C/c2ccccc2)cc1 | NCI-H522 | % | = | 52
Cc1ccc(-c2nc3ccc(Cl)cc3c3nnnn23)cc1 | NCI-H522 | % | = | 21
Cc1ccc(C(=O)Nc2ccc(Cl)cc2C(=O)Nc2ccccc2)cc1 | NCI-H522 | % | = | 21
Cc1ccc(-c2nc3ccc(Cl)cc3c(=O)n2NC(=O)CNN)cc1 | NCI-H522 | % | = | 61
Cc1ccc(C(=O)Nc2ccc(Cl)cc2C(=O)NCc2ccccc2)cc1 | NCI-H522 | % | = | 47
Cc1ccc(-c2nc3ccc(Cl)cc3c3nnc(S)n23)cc1 | NCI-H522 | % | < | 10
Cc1ccc(C(=O)Nc2ccc(Cl)cc2C(=O)Nc2ccccn2)cc1 | NCI-H522 | % | = | 22
Cc1ccc(C2=Nc3ccc(Cl)cc3C3=NNCC(=O)NN23)cc1 | NCI-H522 | % | < | 10
Cc1ccc(-c2nc3ccc(Cl)cc3c(=O)n2NC(=O)CN)cc1 | NCI-H522 | % | < | 10
